tested on: INS-1 cells; assay: Cell survival assay, intracellular ATP (CellTiter-Glo), INS-1 cells treated with Tm; type: cell-based, rat; conditions: Table 2; INS-1 cells, Tm 0.1 μg/mL, 72 h; Tm alone 0%, DMSO control 100%
Readout Kind: Maximum activity (% rescue)

# Smiles Notation, Maximum activity (% rescue)
records = [
    ("O=C(NCc1ccc(Cl)cc1)c1ccc2c(c1)OCCO2", "69% ± 12%"),
    ("O=C(NCc1ccc(Cl)c(Cl)c1)c1ccc2c(c1)OCCO2", "68% ± 10%"),
]

Maximum activity (% rescue) in this record for "O=C(NCc1ccccc1Br)c1ccc2c(c1)OCCO2" : 38% ± 14%

Maximum activity (% rescue) in this record for "O=C(NCc1cccc(Cl)c1)c1ccc2c(c1)OCCO2" : 57% ± 11%

Maximum activity (% rescue) in this record for "O=C(NCc1ccccc1Cl)c1ccc2c(c1)OCCO2" : 43% ± 12%

Maximum activity (% rescue) in this record for "O=C(NCc1cccc(Br)c1)c1ccc2c(c1)OCCO2" : 69% ± 9%

###

system: INS-1 cells; assay: Cell survival assay, intracellular ATP (CellTiter-Glo), INS-1 cells treated with Tm; format: cell-based, rat; conditions: Table 3; INS-1 cell viability, Tm 0.1 μg/mL, 72 h; read-out: EC50
Readout Kind: pEC50
Entry type: numeric. Quantity: pEC50, the -log10 of concentration in molar units.

# Molecule, pEC50
records = [
    ("CCOc1cccc(C(=O)NCCc2ccccc2)c1 [Compound 10f]", 4.59),
    ("O=C(NCCc1ccccc1)c1ccc(CN2CCCC2)cc1 [Compound 10k]", 4.96),
    ("CN(C)S(=O)(=O)c1ccc(C(=O)NCCc2ccccc2)cc1 [Compound 10j]", 4.72),
]

As a next step, examine the molecule that follows.
pEC50 in this record for O=C(NCCc1ccccc1)c1ccc(Cl)c(Cl)c1 [Compound 10m] : 4.77

###

test system: INS-1 cells; assay: Cell survival assay, intracellular ATP (CellTiter-Glo), INS-1 cells treated with Tm; type: cell-based, rat; details: Table 3; INS-1 cell viability, Tm 0.1 μg/mL, 72 h; read-out: EC50
Catalogue of EC50 readings, one per entry.
Write down the numeric answer in µM and omit the unit.

EC50 in this record for Cc1ccc(C(=O)NCCc2ccccc2)cc1 [Compound 10h] : 20

EC50 in this record for O=C(NCCc1ccccc1)c1ccc(CN2CCCCC2)cc1 [Compound 10l] : 21

EC50 in this record for O=C(NCCc1ccccc1)c1ccc(F)c(F)c1F [Compound 10o] : 9.9

EC50 in this record for CS(=O)(=O)Nc1cccc(C(=O)NCCc2ccccc2)c1 [Compound 10g] : 25

EC50 in this record for COc1ccc(C(=O)NCCc2ccccc2)cc1C [Compound 10n] : 15
